The origin of these recorded values is paper PMC11207571.

Would you mind telling me the reported efflux ratio at 120 min, 1 µM of each entry?
SYSTEM_NAME: human BCRP (Homo sapiens, UniProt Q9UNQ0)
Sequence (Q9UNQ0 whole entry): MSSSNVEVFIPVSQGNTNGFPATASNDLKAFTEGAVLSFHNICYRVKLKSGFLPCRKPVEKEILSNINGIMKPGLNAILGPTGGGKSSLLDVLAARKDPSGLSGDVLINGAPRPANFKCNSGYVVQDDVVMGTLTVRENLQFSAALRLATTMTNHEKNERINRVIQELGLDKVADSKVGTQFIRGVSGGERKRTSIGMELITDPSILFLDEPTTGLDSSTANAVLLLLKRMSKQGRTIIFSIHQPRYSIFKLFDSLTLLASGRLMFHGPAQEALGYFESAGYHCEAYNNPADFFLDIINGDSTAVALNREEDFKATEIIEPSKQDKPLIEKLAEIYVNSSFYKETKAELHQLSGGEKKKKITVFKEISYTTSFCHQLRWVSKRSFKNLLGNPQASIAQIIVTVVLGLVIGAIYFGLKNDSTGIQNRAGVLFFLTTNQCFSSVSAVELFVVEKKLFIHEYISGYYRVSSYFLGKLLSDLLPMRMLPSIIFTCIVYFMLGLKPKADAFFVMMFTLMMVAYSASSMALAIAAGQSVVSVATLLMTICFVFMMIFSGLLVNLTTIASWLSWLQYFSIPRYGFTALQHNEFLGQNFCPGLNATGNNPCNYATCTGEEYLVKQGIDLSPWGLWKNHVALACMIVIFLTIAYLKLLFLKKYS
PROTOCOL_DESCRIPTION: Bidirectional transport assay, efflux ratio in MDCKII-BCRP cells
RUN_CONDITIONS: human, pH 7.4
Numbers only.

COMPOUND	efflux ratio at 120 min, 1 µM
CC(C)NCC(O)COc1cccc2ccccc12 (stereo not shown) [Propranolol]	0.71
CC(C)N(CCC(C(N)=O)(c1ccccc1)c1ccccn1)C(C)C (stereo not shown) [Disopyramide]	4.2
CN(C)CCC(c1ccccc1)c1ccccn1 (stereo not shown) [Pheniramine]	1.02
O=C(O)CCCN1CCC(O[C@@H](c2ccc(Cl)cc2)c2ccccn2)CC1 [Bepotastine]	2.19
COc1ccc(CCN2CCC(Nc3nc4ccccc4n3Cc3ccc(F)cc3)CC2)cc1 [Astemizole]	13.6

Hi there! I need efflux ratio at 120 min, 1 µM for each item below, if you can.
1. Cc1cc(=O)n(-c2ccccc2)n1C [Antipyrine]
2. CN/C(=N/CCSCc1nc[nH]c1C)NC#N [Cimetidine]
3. Clc1cccc(Cl)c1N=C1NCCN1 [Clonidine]
4. CN(C)CCc1c[nH]c2ccc(C[C@H]3COC(=O)N3)cc12 [Zolmitriptan]

0.84
72.5
0.89
3.94

Please tell me: efflux ratio at 120 min, 1 µM of CNC(=C[N+](=O)[O-])NCCSCc1ccc(CN(C)C)o1 [Ranitidine] , system human BCRP (Homo sapiens, UniProt Q9UNQ0)? 10.3
